# System Tested: human V2 receptor (Homo sapiens)
# Construct: expressed in transfected cells; host or cells: CHO K1 (ATCC) expressing firefly luciferase under a CRE-responsive promoter
# Sequence (P30518 whole entry): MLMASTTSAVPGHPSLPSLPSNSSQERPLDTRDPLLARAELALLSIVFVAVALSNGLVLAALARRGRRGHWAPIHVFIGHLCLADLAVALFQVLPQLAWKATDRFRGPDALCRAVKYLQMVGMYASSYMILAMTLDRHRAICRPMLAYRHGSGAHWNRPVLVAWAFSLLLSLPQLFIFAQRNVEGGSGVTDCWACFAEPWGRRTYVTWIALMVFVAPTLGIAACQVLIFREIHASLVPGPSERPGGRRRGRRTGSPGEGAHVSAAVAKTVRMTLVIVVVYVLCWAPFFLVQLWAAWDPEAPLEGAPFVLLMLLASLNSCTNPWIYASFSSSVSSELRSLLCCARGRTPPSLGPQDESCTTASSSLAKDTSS
# Assay Summary: Cellular in vitro assay for determining vasopressin receptor activity, V2 receptor cell line (CHO, CRE-luciferase)
# Format: cell-based
# Test Parameters: CHO cell line transfected with human V2 receptor; [Arg8]-vasopressin at EC50 concentration, 3 hours; read-out: IC50 hV2
pIC50: −log10 of the molar value.
Measured pIC50, listed per entry.

{"columns": ["Compound", "System Tested", "pIC50"],
 "data": [
  ["O=C(Nc1ccncn1)c1ccccc1-n1cnc(Cn2nc(-c3ccc(Cl)cc3)n(C[C@H](O)C(F)(F)F)c2=O)n1 [Example 257]", "human V2 receptor (Homo sapiens)", 6.82],
  ["O=C(NCCF)c1ccccc1-n1cnc(Cn2nc(-c3ccc(Cl)cc3)n(C[C@H](O)C(F)(F)F)c2=O)n1 [Example 241]", "human V2 receptor (Homo sapiens)", 7.13],
  ["O=C(N[C@H]1CC[C@H](O)CC1)c1ccccc1-n1cnc(Cn2nc(-c3ccc(Cl)cc3)n(C[C@H](O)C(F)(F)F)c2=O)n1 [Example 246]", "human V2 receptor (Homo sapiens)", 5.92]
]}

====

Measured IC50, listed per entry.
# System Tested: human V2 receptor (Homo sapiens)
# Construct: expressed in transfected cells; host or cells: CHO K1 (ATCC) expressing firefly luciferase under a CRE-responsive promoter
# Assay Summary: Cellular in vitro assay for determining vasopressin receptor activity, V2 receptor cell line (CHO, CRE-luciferase)
# Assay type: cell-based
# Test Parameters: CHO cell line transfected with human V2 receptor; [Arg8]-vasopressin at EC50 concentration; read-out: IC50 hV2

{"columns": ["Compound", "Readout Unit", "IC50"],
 "data": [
  ["O=C(NC1(C(F)(F)F)CC1)c1ncccc1-n1cnc(Cn2nc(-c3ccc(Cl)cc3)n(C[C@@H](O)C(F)(F)F)c2=O)n1", "µM", 1.8],
  ["COCC1CCCN1C(=O)c1cccnc1-n1nc(Cn2nc(-c3ccc(Cl)cc3)n(C[C@H](O)C(F)(F)F)c2=O)nc1C(=O)N1CCNC(=O)C1 (mixture of isomers)", "µM", 20],
  ["O=C(c1ncccc1-n1cnc(Cn2nc(-c3ccc(Cl)cc3)n(C[C@H](O)C(F)(F)F)c2=O)n1)N1CCC[C@@H]1C(F)(F)F", "µM", 1.02],
  ["O=C1CN(C(=O)c2nc(Cn3nc(-c4ccc(Cl)cc4)n(C[C@H](O)C(F)(F)F)c3=O)nn2-c2ncccc2C(=O)NCCC(F)(F)F)CCN1", "µM", 1.25],
  ["NC(CNC(=O)c1ncccc1-n1cnc(Cn2nc(-c3ccc(Cl)cc3)n(C[C@@H](O)C(F)(F)F)c2=O)n1)C(F)(F)F (mixture of isomers)", "µM", 9.4],
  ["O=C(c1ncccc1-n1cnc(Cn2nc(-c3ccc(Cl)cc3)n(C[C@H](O)C(F)(F)F)c2=O)n1)N1CCC(O)(C(F)(F)F)C1 (mixture of isomers)", "µM", 4.65],
  ["O=C(NCC(F)(F)F)c1cccnc1-n1cnc(Cn2nc(-c3ccc(Cl)cc3)n(C[C@H](O)C(F)(F)F)c2=O)n1", "µM", 0.13],
  ["O=C1CN(C(=O)c2nc(Cn3nc(-c4ccc(Cl)cc4)n(C[C@H](O)C(F)(F)F)c3=O)nn2-c2cnccc2C(=O)N[C@H]2C[C@H]2F)CCN1 (racemic)", "µM", 1.84],
  ["COC[C@H]1CCCN1C(=O)c1cccnc1-n1cnc(Cn2nc(-c3ccc(Cl)cc3)n(C[C@H](O)C(F)(F)F)c2=O)n1", "µM", 0.53],
  ["O=C(NCC1CC1)c1cccnc1-n1cnc(Cn2nc(-c3ccc(Cl)cc3)n(C[C@H](O)C(F)(F)F)c2=O)n1", "µM", 0.505],
  ["O=C(NC1CC(F)(F)C1)c1cccc(C(F)(F)F)c1-n1cnc(Cn2nc(-c3ccc(Cl)cc3)n(C[C@H](O)C(F)(F)F)c2=O)n1", "µM", 0.315],
  ["O=C(c1ncccc1-n1cnc(Cn2nc(-c3ccc(Cl)cc3)n(C[C@@H](O)C(F)(F)F)c2=O)n1)N1CCC(F)(F)C1", "µM", 32]
]}
